Assay: Cytotoxicity against chinese hamster V79-4 cells assessed as survival using 5 x 10^5 cells per plate at 10^-3 M after 24 hrs
Type: cell-based, Cricetulus griseus
Details: read-out: Survival
metric-name: viability at 24 h, 1000 µM

Sample answers from the record:
- molecule: "COC(=O)CN(CC(=O)OC)[C@@H]1C[C@H]1N(CC(=O)OC)CC(=O)OC (relative stereo)"
  viability at 24 h, 1000 µM: "0.02%"
- molecule: "O=C(O)CN(CC(=O)O)[C@@H]1C[C@H]1N(CC(=O)O)CC(=O)O (relative stereo)"
  viability at 24 h, 1000 µM: "0.04%"
- molecule: "O=C1CN([C@H]2C[C@@H]2N2CC(=O)NC(=O)C2)CC(=O)N1 (relative stereo)"
  viability at 24 h, 1000 µM: "30%"

// moving on: another record for viability at 24 h, 1000 µM
Q. Report viability at 24 h, 1000 µM for CC(CN(CC(=O)O)CC(=O)O)N(CC(=O)O)CC(=O)O (centres undefined) please.
A. 1%
